This collection of values is drawn from ChEMBL document CHEMBL5303304.

Would you mind telling me the reported Growth Rate of each entry?
- Tested on: Fibroblast
- measurement-protocol: Incucyte cell viability with human fibroblast; further: unitless GR value; below 1 slowed growth and below 0 cell loss
- Format: toxicity, cell-based
- condition-description: 24 h, 10 µM, compound concentration 10 uM, replicate number 2
One number for each entry.

Cn1cc(-c2ccc(N(C(=O)NCc3ccccc3)[C@H]3CC[C@H](Nc4ccc(C#N)cn4)CC3)cc2)ccc1=O; -0.08
COc1cc(C)c(S(=O)(=O)N(C)CCOCC(=O)N(C)[C@H]2CCC[C@@H](N3CCN(C)CC3)C2)c(C)c1.O=C(O)C(O)C(O)C(=O)O; 0.92
COc1ccc(S(=O)(=O)N2CCOCC2)cc1Nc1ccc2c(n1)N(C1CCOCC1)[C@H](C)C(=O)N2C; 0.36

Turning now to a further compound:
query: Determine its reported Growth Rate: "Cc1[nH]c2c(N3CCCCC3)c(-c3ccccc3)nn2c(=O)c1-c1ccc(O)cc1"
result: 0.24
